Cited source: patent US9670227B2

system under test: Mcl-1 protein (UniProtKB primary accession number: Q07820) (Homo sapiens, UniProt Q07820)
Sequence (Q07820 whole entry): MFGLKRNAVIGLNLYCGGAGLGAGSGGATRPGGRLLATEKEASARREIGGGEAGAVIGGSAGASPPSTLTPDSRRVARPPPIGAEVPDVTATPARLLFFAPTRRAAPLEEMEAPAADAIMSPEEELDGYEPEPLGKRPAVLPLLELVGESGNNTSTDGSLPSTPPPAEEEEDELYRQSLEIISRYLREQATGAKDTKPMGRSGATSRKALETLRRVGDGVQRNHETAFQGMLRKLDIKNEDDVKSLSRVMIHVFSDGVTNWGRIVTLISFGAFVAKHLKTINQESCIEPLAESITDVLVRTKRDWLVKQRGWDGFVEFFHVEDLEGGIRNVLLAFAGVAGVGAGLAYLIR
test details: Inhibition of Mcl-1 by fluorescence polarisation, Method 1
Assay type: binding
test context: fluorescence polarisation test; Method 2 values are underlined in the patent (underlining not visible here); read-out: IC50 (M) Mcl-1 FP
endpoint name: IC50 (M)

// solved cases for IC50 follow
>  <compound>
Cc1ncc(COc2ccccc2CC(Oc2ncnc3sc(-c4ccco4)c(-c4ccc(OCCN5CCN(C)CC5)c(Cl)c4C)c23)C(=O)O)cn1 (stereo not drawn) [Example 271]

>  <system under test>
Mcl-1 protein (UniProtKB primary accession number: Q07820) (Homo sapiens, UniProt Q07820)

>  <units>
M

>  <experimental result>
1.6e-08

$$$$
>  <compound>
Cc1c(-c2c(-c3ccc(F)cc3)sc3ncnc(OC(Cc4ccccc4OCC(F)(F)F)C(=O)O)c23)ccc(OCCN2CCN(C)CC2)c1Cl (stereo not drawn) [Example 3]

>  <system under test>
Mcl-1 protein (UniProtKB primary accession number: Q07820) (Homo sapiens, UniProt Q07820)

>  <units>
M

>  <experimental result>
8.9e-09

$$$$
>  <compound>
COc1ccccc1CC(Oc1ncnc2sc(-c3ccco3)c(-c3ccc(OCCN4CCN(C)CC4)c(Cl)c3C)c12)C(=O)O (stereo not drawn) [Example 209]

>  <system under test>
Mcl-1 protein (UniProtKB primary accession number: Q07820) (Homo sapiens, UniProt Q07820)

>  <units>
M

>  <experimental result>
9.8e-09

$$$$
>  <compound>
COc1nccc(COc2ccccc2CC(Oc2ncnc3sc(-c4ccc(F)c(OC)c4)c(-c4ccc(OCCN5CCN(C)CC5)c(Cl)c4C)c23)C(=O)O)n1 (stereo not drawn) [Example 383]

>  <system under test>
Mcl-1 protein (UniProtKB primary accession number: Q07820) (Homo sapiens, UniProt Q07820)

>  <units>
M

>  <experimental result>
5.6e-09

$$$$

(P) CCCCn1nccc1COc1ccccc1CC(Oc1ncnc2sc(-c3ccc(F)cc3)c(-c3ccc(OCCN(C)C)c(Cl)c3C)c12)C(=O)O (stereo not drawn) [Example 133]
(Q) Cc1c(-c2c(-c3ccc(F)cc3)sc3ncnc(O[C@H](Cc4ccccc4OCc4ccnn4C)C(=O)O)c23)ccc(OCCN2CCN(C)CC2)c1Cl [Example 69]
Request: For the pair P and Q , which member has the lower IC50 number? Give the label of your selection.
Response: P
(P: 3.4e-09 M, Q: 9.7e-08 M)
